Entry source: patent US20230218710A1

Could you please report measured Emax at 10 µM for the items listed next?
- Tested system: Apelin Receptor (APJ) (Homo sapiens, UniProt P35414)
- Construct: host or cells: CHO-K1 AGTRL1 Gi cells
- Sequence (P35414 whole entry): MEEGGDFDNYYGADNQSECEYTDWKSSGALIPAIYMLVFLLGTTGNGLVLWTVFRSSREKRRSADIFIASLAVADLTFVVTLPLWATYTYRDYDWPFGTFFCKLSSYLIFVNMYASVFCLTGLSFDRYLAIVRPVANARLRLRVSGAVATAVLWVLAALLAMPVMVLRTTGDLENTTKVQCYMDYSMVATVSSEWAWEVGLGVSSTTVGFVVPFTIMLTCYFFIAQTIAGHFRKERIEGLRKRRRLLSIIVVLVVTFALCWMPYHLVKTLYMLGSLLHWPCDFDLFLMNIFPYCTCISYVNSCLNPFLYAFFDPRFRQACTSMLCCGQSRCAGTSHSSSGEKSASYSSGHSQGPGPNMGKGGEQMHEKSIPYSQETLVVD
- Assay notes: cell-based
- Condition context: CHO-K1, 0.5 h, read-out: Percent of Pyr-Apelin-13 Control Activity
- Experimental: Peptides were initially prepared as 30 mM stock in DMSO and diluted to 3 mM in H2O or directly as 3 mM stock in H2O; used at a final concentration of 10 μM (0-0.1% DMSO).
Give bare numbers, in %.

Solved entries:
>  <Compound>
CSCC[C@H](NC(=O)CNC(=O)[C@H](CCSC)NC(=O)[C@H](CCSC)NC(=O)[C@H](CCCNC(=N)N)NC(=O)[C@@H](N)CCCNC(=N)N)C(=O)N[C@H](C(=O)N[C@@H](C)C(=O)N[C@@H](CCC(N)=O)C(=O)N[C@@H](CS)C(=O)N[C@@H](CC(C)C)C(=O)N[C@@H](CS)C(=O)NCC(=O)N[C@H](C)C(=O)O)C(C)C [compound 11]

>  <Unit>
%

>  <Emax at 10 µM>
49

$$$$
>  <Compound>
CSCC[C@H](NC(=O)CNC(=O)[C@H](CCSC)NC(=O)[C@H](CCSC)NC(=O)[C@H](CCCNC(=N)N)NC(=O)[C@@H](N)CCCNC(=N)N)C(=O)N[C@H](C(=O)N[C@@H](Cc1ccccc1)C(=O)N[C@@H](CCC(N)=O)C(=O)N[C@@H](CO)C(=O)N[C@@H](CC(C)C)C(=O)N[C@@H](CS)C(=O)NCC(=O)N[C@H](C)C(=O)O)C(C)C [compound 15]

>  <Unit>
%

>  <Emax at 10 µM>
105

$$$$

Now for another entry.
Query :: API: value(readout= Emax at 10 µM, system= Apelin Receptor (APJ) (Homo sapiens, UniProt P35414), query= COCCOCCOCCOCCOCCOCCOCCOCCOCCOCCOCCOCCC(=O)N[C@@H](CCCCN)C(=O)N[C@@H](CCCNC(=N)N)C(=O)N[C@@H](CCCNC(=N)N)C(=O)N[C@@H](CCSC)C(=O)N[C@@H](CCSC)C(=O)NCC(=O)N[C@@H](CCSC)C(=O)N[C@H](C(=O)N[C@@H](Cc1ccccc1)C(=O)N[C@@H](CCC(N)=O)C(=O)N[C@@H](CO)C(=O)N[C@@H](CC(C)C)C(=O)N[C@@H](CS)C(=O)NCC(=O)N[C@H](C)C(=O)O)C(C)C [compound 36] )
Result :: 101
